system: T1, extracellular domain (ECD) of human αKlotho, amino acids E34-S981 with C-terminal 6-His tag (R&D Systems … (human, UniProt Q9UEF7 34-981))
T1 construct: range 34-981; also called αKlotho (aa34-981); target antigen
T1 sequence: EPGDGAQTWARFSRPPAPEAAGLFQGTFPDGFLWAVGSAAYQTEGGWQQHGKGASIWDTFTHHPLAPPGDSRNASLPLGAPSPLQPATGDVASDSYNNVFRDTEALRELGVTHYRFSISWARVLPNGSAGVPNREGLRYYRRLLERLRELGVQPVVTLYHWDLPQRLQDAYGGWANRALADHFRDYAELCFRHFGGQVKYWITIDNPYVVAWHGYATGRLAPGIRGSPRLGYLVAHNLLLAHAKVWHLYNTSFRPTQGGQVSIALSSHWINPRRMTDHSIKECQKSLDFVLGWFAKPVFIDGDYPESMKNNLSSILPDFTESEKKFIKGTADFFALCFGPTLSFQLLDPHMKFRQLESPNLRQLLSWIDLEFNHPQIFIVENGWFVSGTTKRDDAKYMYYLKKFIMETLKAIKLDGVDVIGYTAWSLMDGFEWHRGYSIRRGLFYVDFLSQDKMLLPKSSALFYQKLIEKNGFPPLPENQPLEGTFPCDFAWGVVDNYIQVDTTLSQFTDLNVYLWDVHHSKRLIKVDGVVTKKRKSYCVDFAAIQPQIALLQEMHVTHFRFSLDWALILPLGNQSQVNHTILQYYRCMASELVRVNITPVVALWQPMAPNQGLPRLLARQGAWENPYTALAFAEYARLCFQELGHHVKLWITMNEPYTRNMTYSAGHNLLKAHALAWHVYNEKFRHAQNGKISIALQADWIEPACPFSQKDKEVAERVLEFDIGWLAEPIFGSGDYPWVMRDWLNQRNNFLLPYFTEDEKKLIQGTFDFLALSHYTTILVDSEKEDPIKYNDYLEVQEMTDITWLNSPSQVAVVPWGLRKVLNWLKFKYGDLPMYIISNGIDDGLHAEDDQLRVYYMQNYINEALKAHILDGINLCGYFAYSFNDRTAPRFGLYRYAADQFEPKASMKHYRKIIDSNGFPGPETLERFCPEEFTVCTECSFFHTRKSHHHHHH
protocol_summary: SPR, Fab captured by anti-H+L antibody, αKlotho injected
pKd: −log10 of the molar value.
We begin with a simple list: items and their reported pKd.
readout_name: pKd

binder="anti-αKlotho Fab clone 4828 (Fab, V domains shown, Fab (also as Fab-phage); FLAG tag on light chain; also called sb197) VH: EVQLVESGGGLVQPGGSLRLSCAASGFNFSSSSIHWVRQAPGKGLEWVASISSSYGYTYYADSVKGRFTISADTSKNTAYLQMNSLRAEDTAVYYCARYVVGGWWYHYGMDYWGQGTLVTVSS VL: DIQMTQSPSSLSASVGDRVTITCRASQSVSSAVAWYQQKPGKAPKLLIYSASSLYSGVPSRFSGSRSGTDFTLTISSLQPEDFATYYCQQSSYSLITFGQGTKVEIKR" readout_name=pKd measurement=8.31
binder="anti-αKlotho Fab clone 4823 (Fab, V domains shown, Fab (also as Fab-phage); FLAG tag on light chain; also called sb192) VH: EVQLVESGGGLVQPGGSLRLSCAASGFNFSSSSIHWVRQAPGKGLEWVAYIYSSYGYTYYADSVKGRFTISADTSKNTAYLQMNSLRAEDTAVYYCARAAHYGYYVHSGLDYWGQGTLVTVSS VL: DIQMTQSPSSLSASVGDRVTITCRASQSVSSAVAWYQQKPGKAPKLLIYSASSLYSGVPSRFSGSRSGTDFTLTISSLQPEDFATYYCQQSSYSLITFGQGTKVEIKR" readout_name=pKd measurement=8.80
binder="anti-αKlotho Fab clone 4826 (Fab, V domains shown, Fab (also as Fab-phage); FLAG tag on light chain; also called sb195) VH: EVQLVESGGGLVQPGGSLRLSCAASGFNISSYYMHWVRQAPGKGLEWVASISSSYGYTYYADSVKGRFTISADTSKNTAYLQMNSLRAEDTAVYYCARGYPASSYYYPSSALDYWGQGTLVTVSS VL: DIQMTQSPSSLSASVGDRVTITCRASQSVSSAVAWYQQKPGKAPKLLIYSASSLYSGVPSRFSGSRSGTDFTLTISSLQPEDFATYYCQQAGFFSYPITFGQGTKVEIKR" readout_name=pKd measurement=8.48
binder="anti-αKlotho Fab clone 4809 (Fab, V domains shown, Fab (also as Fab-phage); FLAG tag on light chain; also called sb178) VH: EVQLVESGGGLVQPGGSLRLSCAASGFNIYSYYIHWVRQAPGKGLEWVASIYSYYGSTSYADSVKGRFTISADTSKNTAYLQMNSLRAEDTAVYYCARSGPWAWYGLDYWGQGTLVTVSS VL: DIQMTQSPSSLSASVGDRVTITCRASQSVSSAVAWYQQKPGKAPKLLIYSASSLYSGVPSRFSGSRSGTDFTLTISSLQPEDFATYYCQQSGWAYHPITFGQGTKVEIKR" readout_name=pKd measurement=9.07
binder="anti-αKlotho Fab clone 4832 (Fab, V domains shown, Fab (also as Fab-phage); FLAG tag on light chain; also called sb201) VH: EVQLVESGGGLVQPGGSLRLSCAASGFNFSSSSIHWVRQAPGKGLEWVAYISSSYGYTSYADSVKGRFTISADTSKNTAYLQMNSLRAEDTAVYYCARASGWFSHFYPAAVSGMDYWGQGTLVTVSS VL: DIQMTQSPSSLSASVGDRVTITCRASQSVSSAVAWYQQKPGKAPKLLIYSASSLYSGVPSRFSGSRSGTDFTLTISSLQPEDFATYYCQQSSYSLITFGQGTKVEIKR" readout_name=pKd measurement=9.29
